- System: Prostaglandin G/H synthase 1 (Ovis aries) (UniProt P05979)
- Sequence (P05979 whole entry): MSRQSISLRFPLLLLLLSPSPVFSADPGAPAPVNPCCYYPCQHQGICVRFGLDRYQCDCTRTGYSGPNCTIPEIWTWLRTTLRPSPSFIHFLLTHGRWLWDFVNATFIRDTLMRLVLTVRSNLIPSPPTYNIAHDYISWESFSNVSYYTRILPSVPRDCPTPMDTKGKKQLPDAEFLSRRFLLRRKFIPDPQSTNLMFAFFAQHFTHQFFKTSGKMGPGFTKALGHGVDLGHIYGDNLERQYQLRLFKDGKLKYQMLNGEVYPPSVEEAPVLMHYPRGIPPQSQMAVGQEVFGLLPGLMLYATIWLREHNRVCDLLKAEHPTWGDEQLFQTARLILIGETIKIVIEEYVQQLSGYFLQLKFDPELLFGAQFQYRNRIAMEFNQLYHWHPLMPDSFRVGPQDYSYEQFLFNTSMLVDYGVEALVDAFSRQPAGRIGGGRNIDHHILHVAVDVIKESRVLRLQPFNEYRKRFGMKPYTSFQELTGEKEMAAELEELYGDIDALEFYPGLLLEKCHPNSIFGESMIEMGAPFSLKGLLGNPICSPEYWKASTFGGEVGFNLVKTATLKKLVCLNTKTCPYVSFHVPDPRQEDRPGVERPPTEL
- Assay: Inhibition of ovine COX1 using fluorometric substrate at 100 uM by fluorescent inhibitor screening assay
Endpoint label: inhibition (%)

Some compounds with known inhibition results, for comparison:
[[record]]
compound = "CC1CN(c2ccc(S(N)(=O)=O)cc2)C(c2cccc(Br)c2)=N1 (racemic)"
endpoint_label = "inhibition"
reported_value = 20.2

[[record]]
compound = "NS(=O)(=O)c1ccc(N2CCN=C2c2ccc(F)c(F)c2)cc1"
endpoint_label = "inhibition"
reported_value = 6.6

[[record]]
compound = "CC1CN(c2ccc(S(N)(=O)=O)cc2)C(c2ccc(Cl)cc2)=N1 (racemic)"
endpoint_label = "inhibition"
reported_value = 3.2

[[record]]
compound = "COc1cc(C2=NCCN2c2ccc(S(C)(=O)=O)cc2)ccc1F"
endpoint_label = "inhibition"
reported_value = -4.3


(a) NS(=O)(=O)c1ccc(N2CCN=C2c2ccc(Cl)cc2)cc1
(b) CC1CN(c2ccc(S(C)(=O)=O)cc2)C(c2cccc(Br)c2)=N1 (racemic)
So which one has the bigger inhibition here, a or b ? Please identify the chosen entry by its label.
b

(1) NS(=O)(=O)c1ccc(N2CCN=C2c2ccc(Cl)c(C(F)(F)F)c2)cc1
(2) CS(=O)(=O)c1ccc(N2CCN=C2c2ccc(Cl)c(C(F)(F)F)c2)cc1
Would you let me know which has the greater inhibition value, 1 or 2 ? Indicate which entry you chose by stating its label.
2
(2: 4.7%, 1: 2.7%)

(a) NS(=O)(=O)c1ccc(N2CCN=C2c2ccc(F)cc2)cc1
(b) Cc1cccc(C2=NCCN2c2ccc(S(N)(=O)=O)cc2)c1
Quick one: lower inhibition, a or b ? Respond using the label that marks the chosen record.
b
(b: 1.5%, a: 11.4%)

(a) CS(=O)(=O)c1ccc(N2CCN=C2c2cccc(Cl)c2)cc1
(b) Cc1cccc(C2=NCCN2c2ccc(S(C)(=O)=O)cc2)c1
Could you point out whether the larger inhibition belongs to a or to b ? Record your answer as the label of the chosen record.
b
